Assignment: determine reported apparent KD of MS2 coat protein for the given sequences.
- Test system: MS2 coat protein
- run_description: apparent KD of MS2 coat protein, switch ON state; designed switch direction (-1 OFF switch, 1 ON switch): -1; higher = weaker reporter binding
- settings: FMN input: 0 or 200 uM; Eterna round: R93 (includes R88 designs)
Give bare numbers, in nM.

[
  {
    "polymer_sequence": "AAAAAACAUGAGGAUCACCCAUGUAAGGAUAUGCAGAUUAUAAGAAAAAAAAAAAAAAGCAGAAGGUACAAAAA [Default title]",
    "apparent KD of MS2 coat protein (nM)": 37.4
  },
  {
    "polymer_sequence": "AAAAACGGAGGAUAUACAAAUUAAGGAAGAAAACACGAAAAACAUGAGGAUCACCCAUGUAGAAGGCCGGAAAA [Ex 2 #3]",
    "apparent KD of MS2 coat protein (nM)": 24.1
  }
]

Okay, next one:
Query: So what's the measured apparent KD of MS2 coat protein for this one? AAGAAGGUAGGAUAUACUAAAGAAAUAAAAAGAAAGAAAGAACAUGAGGAUCACCCAUGUAGAAGGGCCAAGAA [Merkare]
Response: 51
